Source listed as patent US20240279318A1.

biological target: T1, AFP158/HLA-A*02:01 complex (human); assay: SPR, crude scFv captured, pMHC analyte;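 further: complex injected at several concentrations over the chip, association phase then running buffer for dissociation, KD derived from on- and off-rates computed from both curves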
T1 construct: flowed as analyte in SPR
Parameter measured: kon (M⁻¹ s⁻¹)
Please give a number only; it is taken to be in M⁻¹ s⁻¹.

Illustrative cases are given below, each with its answer.
AS170036 VL1VH1-57K98Q108S (scFv, also called 75-AS170036 VL1VH1-57K98Q108S) scFv: QSALTQPRSVSGSPGQSVTISCAGTSSDVGSENYVSWYQQHPGKAPKLMIYQVNKRASGVPDRFSGSKSGNTASLTISGLQAEDEADYYCASYRSSDQNIVFGGGTKLTVLGGGGSGGGGSGGGGSEVQLVESGGGLVQPGGSLRLSCAASGFTFSSYAMSWVRQAPGKGLEWVSTINSGTGKPYYADSVKGRFTISRDNSKNTLYLQMNSLRAEDTAVYYCAKNFFDGSWFLSPPAMDYWGQGTLVTVSSHHHHHH :: 130000
AS170036 VL1VH1-57H98Q108A (scFv, also called 64-AS170036 VL1VH1-57H98Q108A) scFv: QSALTQPRSVSGSPGQSVTISCAGTSSDVGSENYVSWYQQHPGKAPKLMIYQVNKRASGVPDRFSGSKSGNTASLTISGLQAEDEADYYCASYRSSDQNIVFGGGTKLTVLGGGGSGGGGSGGGGSEVQLVESGGGLVQPGGSLRLSCAASGFTFSSYAMSWVRQAPGKGLEWVSTINSGTGHPYYADSVKGRFTISRDNSKNTLYLQMNSLRAEDTAVYYCAKNFFDGSWFLAPPAMDYWGQGTLVTVSSHHHHHH :: 230000

Requested field: kon. Item: AS170036 VL1VH1-56Y98I108S (scFv, also called 45-AS170036 VL1VH1-56Y98I108S) scFv: QSALTQPRSVSGSPGQSVTISCAGTSSDVGSENYVSWYQQHPGKAPKLMIYQVNKRASGVPDRFSGSKSGNTASLTISGLQAEDEADYYCASYRSSDINIVFGGGTKLTVLGGGGSGGGGSGGGGSEVQLVESGGGLVQPGGSLRLSCAASGFTFSSYAMSWVRQAPGKGLEWVSTINSGTYSPYYADSVKGRFTISRDNSKNTLYLQMNSLRAEDTAVYYCAKNFFDGSWFLSPPAMDYWGQGTLVTVSSHHHHHH
180000
